- tested.system: Uracil-DNA glycosylase (Homo sapiens) (UniProt P13051);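 note: UNG excision on a quenched double-stranded DNA oligo probe, with APE1 added for strand incision and turnover, read as fluorescence at 594 nm as strands separate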
- Sequence (P13051 whole entry): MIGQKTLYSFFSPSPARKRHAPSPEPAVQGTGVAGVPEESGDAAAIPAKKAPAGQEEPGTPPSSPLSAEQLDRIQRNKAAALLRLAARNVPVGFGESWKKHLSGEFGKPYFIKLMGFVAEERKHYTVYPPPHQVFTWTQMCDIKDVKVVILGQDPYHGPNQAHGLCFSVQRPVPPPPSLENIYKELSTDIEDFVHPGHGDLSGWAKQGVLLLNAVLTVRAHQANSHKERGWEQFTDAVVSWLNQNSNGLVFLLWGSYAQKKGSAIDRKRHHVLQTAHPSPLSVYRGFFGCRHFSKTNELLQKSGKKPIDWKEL
- assay.context: Compound Concentration 10.0 uM, Hit No
- Description: Inhibition of UNG by quantifying inhibition of UNG-mediated cleavage and dissociation of quenched duplex DNA oligonucleotides, measured as fluorescence at 594 nm. To generate a functional strand incision and increase turn-over this assay is coupled to APE1.

| compound | tested.system | inhibition, % |
| --- | --- | --- |
| CC(=O)Nc1nc2c(Oc3cc(-c4ccc(C(F)(F)F)cc4)ncn3)cccc2s1 | Uracil-DNA glycosylase (Homo sapiens) (UniProt P13051) | -3.19 |
| O=C1NCN(c2ccccc2)C12CCN(CCCOc1ccc(F)cc1)CC2 | Uracil-DNA glycosylase (Homo sapiens) (UniProt P13051) | -6.4 |
| COc1cc(-c2cncc(-c3ccc(N4CCN(C(C)C)CC4)cc3)c2C)cc(F)c1C(N)=O | Uracil-DNA glycosylase (Homo sapiens) (UniProt P13051) | 5.22 |
| O=C(NS(=O)(=O)N1CCC1)c1cc(C2CC2)c(OCC23CC4CC(CC(C4)C2)C3)cc1F | Uracil-DNA glycosylase (Homo sapiens) (UniProt P13051) | 7.9 |
| CC[S+]([O-])c1nc(-c2cccc(OCc3ccccc3)c2)cc(C(F)(F)F)n1 (centres undefined) | Uracil-DNA glycosylase (Homo sapiens) (UniProt P13051) | -7.73 |
| Cc1c(C(=O)O)cc(-c2ccc(C3CCNCC3)cc2)c2ccc(-c3ccc(C(F)(F)F)cc3)cc12 | Uracil-DNA glycosylase (Homo sapiens) (UniProt P13051) | 3.66 |
| Cc1c(P(=S)(c2ccccc2)c2ccccc2)n2ccccc2[n+]1C/C=C/c1ccccc1 | Uracil-DNA glycosylase (Homo sapiens) (UniProt P13051) | -7.24 |
| CCN(CC)S(=O)(=O)Nc1cccc(-c2ccc3c(NC(=O)C4CC4)n[nH]c3c2)c1 | Uracil-DNA glycosylase (Homo sapiens) (UniProt P13051) | 2.23 |
| O=C(NCC12CC3CC(CC(C3)C1)C2)c1ccccc1Cl | Uracil-DNA glycosylase (Homo sapiens) (UniProt P13051) | -0.487 |
| COc1ccc2cc(S(=O)(=O)N[C@H](CC(=O)N[C@H](Cc3ccc(CN4[C@H](C)CCC[C@@H]4C)cc3)C(=O)N(C)C(C)C)c3ccc4c(c3)OCO4)ccc2c1 | Uracil-DNA glycosylase (Homo sapiens) (UniProt P13051) | 3.72 |
| COc1ccc(COc2ccc(Cc3cnc(N)nc3N)cc2OC)cc1 | Uracil-DNA glycosylase (Homo sapiens) (UniProt P13051) | -0.384 |
| Cc1cc(SCc2sc(-c3ccc(C(F)(F)F)cc3)nc2C)ccc1OCC(=O)O | Uracil-DNA glycosylase (Homo sapiens) (UniProt P13051) | -0.945 |
| C[C@@H]1CN(c2ncc(Cl)c(Nc3ccc4c(c3)n(CCC(C)(C)O)c(=O)n4C)n2)C[C@H](C)C1(F)F | Uracil-DNA glycosylase (Homo sapiens) (UniProt P13051) | 9.4 |
| O=S(=O)(Nc1nnc2cc(OCC34CC5CC(CC(C5)C3)C4)c(C3CC3)cn12)C1CC1 | Uracil-DNA glycosylase (Homo sapiens) (UniProt P13051) | 12 |
| C=CC(=O)Nc1ccc2[nH]c(=O)n(C3CCN(Cc4ccc(-c5ccc6c(c5)NC(=O)CO6)cc4)CC3)c2c1 | Uracil-DNA glycosylase (Homo sapiens) (UniProt P13051) | 1.08 |
| N#Cc1ccc2[nH]cc(CCCCN3CCN(c4ccc5oc(C(N)=O)cc5c4)CC3)c2c1 | Uracil-DNA glycosylase (Homo sapiens) (UniProt P13051) | -7.29 |
| Cc1noc([C@H]2C[C@@H](c3ccc(C(F)(F)F)cc3)CN(C(=O)N3CCS(=O)(=O)C3)C2)n1 | Uracil-DNA glycosylase (Homo sapiens) (UniProt P13051) | -0.51 |
| Cn1cc(Nc2nccc(N3CC4CCC(C3)N4C(=O)[C@@H]3CC3(F)F)n2)cn1 | Uracil-DNA glycosylase (Homo sapiens) (UniProt P13051) | -0.791 |
| CN1CCN2c3ccccc3Cc3ccccc3C2C1 (centres undefined) | Uracil-DNA glycosylase (Homo sapiens) (UniProt P13051) | -6.73 |
